# Tested on: OVCAR-4
# experiment_description: NCI tumour cell line growth inhibition, 48 h
Activity calls are given as the source filed them. No stated cut-off is given here; in the data, active = GI50 up to about 1.1 µM and inactive = higher.
Write down the outcome that applies. Available outcomes: yes for active, no for inactive

Asked: I would be grateful if you could indicate the recorded call for CC1=NN(C(=O)c2ccccc2O)C(c2ccccc2Cl)C1C(=O)Nc1ccccc1 (configuration not stated) .
Given back: yes

Asked: I would be grateful if you could indicate the recorded call for COc1ccc(/C=N/c2c(O)ccc3ccccc23)cc1OC .
Given back: no

Asked: I would be grateful if you could indicate the recorded call for COC1OC(C)C(OC(=O)C(C)(C)C)C(C)(O)C1O (configuration not stated) .
Given back: no

Asked: I would be grateful if you could indicate the recorded call for COc1ccc(C(=O)C(c2ccc(OC)cc2)C2(O)C(=O)Nc3c(Cl)cc(Cl)cc32)cc1 (configuration not stated) .
Given back: no

Asked: I would be grateful if you could indicate the recorded call for Cc1c(C(=O)NCCO)[n+]([O-])c2cc(Cl)ccc2[n+]1[O-] .
Given back: no

Asked: I would be grateful if you could indicate the recorded call for Cc1cn(C2CC(N/C(=N/C#N)NCC3OC(n4cnc5c(N)ncnc54)CC3O)C(CO)O2)c(=O)[nH]c1=O (configuration not stated) .
Given back: no

Asked: I would be grateful if you could indicate the recorded call for Cc1ccc(NC(=O)CCC(=O)C2CC(=O)CC/C2=N\NC(=O)c2cc3ccccc3cc2O)cc1C (configuration not stated) .
Given back: no

Asked: I would be grateful if you could indicate the recorded call for CCOC1NC(=O)Oc2cc3ccccc3cc21 (configuration not stated) .
Given back: no

Asked: I would be grateful if you could indicate the recorded call for CN(/N=C/c1ccc(C(=O)O)cc1)C1=NCCCCN1 .
Given back: no

Asked: I would be grateful if you could indicate the recorded call for CC(CCC(=O)O)(c1ccc(O)cc1)c1ccc(O)cc1 .
Given back: no

Asked: I would be grateful if you could indicate the recorded call for CC(=O)N/C(=C\c1ccc(Cc2nc3c([nH]2)C(=O)c2ccccc2C3=O)cc1)c1nc2c([nH]1)C(=O)c1ccccc1C2=O .
Given back: no

Asked: I would be grateful if you could indicate the recorded call for O=C(O)c1ccc(NS(=O)(=O)Cc2ccccc2)cc1 .
Given back: no

Asked: I would be grateful if you could indicate the recorded call for C/C(=C1\N=C(c2ccccc2)OC1=O)c1ccccc1 .
Given back: no

Asked: I would be grateful if you could indicate the recorded call for CCSCC(=O)N1CCc2c([nH]c3ccccc23)C1=O .
Given back: no

Asked: I would be grateful if you could indicate the recorded call for COc1cc(C=O)cc(/C=N/N=C/c2ccccc2O)c1O .
Given back: no

Asked: I would be grateful if you could indicate the recorded call for O=C(c1ccc(Cl)cc1)c1ccc(OCC(=O)N2CCN(c3ccccc3)CC2)cc1 .
Given back: no

Asked: I would be grateful if you could indicate the recorded call for COc1cc(C(=O)NC2CCc3cc(OC)c(OC)c(OC)c3-c3ccc(OC)c(=O)cc32)cc(OC)c1OC (configuration not stated) .
Given back: no

Asked: I would be grateful if you could indicate the recorded call for Cc1ccc2c(O)cc(-c3ccc(Cl)s3)nc2n1 .
Given back: no

Asked: I would be grateful if you could indicate the recorded call for COC(=O)OC[C@H]1O[C@@H](n2cc(C)c(=O)[nH]c2=O)CC1OC(=O)OC (some centres not stated) .
Given back: no

Asked: I would be grateful if you could indicate the recorded call for Clc1ccc(-c2nnc(-c3nsc4ccccc34)o2)cc1 .
Given back: no

Asked: I would be grateful if you could indicate the recorded call for CC1(C)N=C(Oc2ccccc2)n2nccc2N1 .
Given back: no

Asked: I would be grateful if you could indicate the recorded call for O=c1c2ccc(Cl)cc2oc2c(CSc3ccccc3)cccc12 .
Given back: no

Asked: I would be grateful if you could indicate the recorded call for C=C(CCC(C(=O)O)C1CCC2(C)C3=C(CCC12C)C1(C)CCC(O)C(C)(C)C1CC3)C(C)C (configuration not stated) .
Given back: no

Asked: I would be grateful if you could indicate the recorded call for CCCCSc1n/c(=C\c2ccc(N(C)C)cc2)c2nnnn12 .
Given back: no

Asked: I would be grateful if you could indicate the recorded call for Cc1cn(C2CC(n3cc(Cn4cc(F)c(=O)[nH]c4=O)nn3)C(CO)O2)c(=O)[nH]c1=O (configuration not stated) .
Given back: no

Asked: I would be grateful if you could indicate the recorded call for Cc1cc2c(cc1C)[n+]([O-])c(-c1c(Cl)cccc1Cl)c(N)[n+]2[O-] .
Given back: no

Asked: I would be grateful if you could indicate the recorded call for O=c1[nH]c(=O)n(COCCO)c2ccc(Br)cc12 .
Given back: no

Asked: I would be grateful if you could indicate the recorded call for Cc1cc2c(cc1C)C(=O)c1ncccc1C2=O .
Given back: no

Asked: I would be grateful if you could indicate the recorded call for CCc1ccccc1N1CCN(C(=O)c2cc(OC)c(OC)c(OC)c2)CC1 .
Given back: no

Asked: I would be grateful if you could indicate the recorded call for Cc1nc2c(n1CC(C)C)C(=O)c1ccccc1C2=O .
Given back: no

Asked: I would be grateful if you could indicate the recorded call for COC(=O)c1sc2ncc3c(c2c1N)CCCCCC3 .
Given back: no

Asked: I would be grateful if you could indicate the recorded call for COC(=O)C(CCCC1(c2ccccc2)OCCO1)C(C)=O (configuration not stated) .
Given back: no

Asked: I would be grateful if you could indicate the recorded call for C=CCNC(=O)N(CCC)CCCCC(NC(C)=O)C(=O)NCc1ccccc1 (configuration not stated) .
Given back: no

Asked: I would be grateful if you could indicate the recorded call for CCCCn1c(-c2ccccc2)cs/c1=N\N=C1C=C(C(C)(C)C)C(=O)C(C(C)(C)C)=C1 .
Given back: no

Asked: I would be grateful if you could indicate the recorded call for COc1ccc(/C=C/C(=O)c2c(-c3ccccc3)nn(C)c(=O)c2N2CC2C)cc1 (configuration not stated) .
Given back: no

Asked: I would be grateful if you could indicate the recorded call for CCOC(=O)CCc1ccc(NC(=O)/C=C/c2ccc([N+](=O)[O-])o2)cc1 .
Given back: no

Asked: I would be grateful if you could indicate the recorded call for COC(=O)C(Cc1ccccc1)NP(=O)(O)OCC1OC(n2ccc(N)nc2=O)C(O)C1O (configuration not stated) .
Given back: no

Asked: I would be grateful if you could indicate the recorded call for C/C(=C/CNc1ncnc2c1ncn2CCC(=O)O)CO .
Given back: no

Asked: I would be grateful if you could indicate the recorded call for O=[N+]([O-])c1ccc(-n2nc3ccc4c(no[n+]4[O-])c3n2)cc1 .
Given back: no

Asked: I would be grateful if you could indicate the recorded call for CCOc1ccccc1N1C(=O)C(=O)C(c2nc3ccccc3o2)C(=O)C1=O .
Given back: no

Asked: I would be grateful if you could indicate the recorded call for COc1cc([C@@H]2c3cc4c(cc3[C@@H](c3c(O)cc(O)c5c3O[C@H](c3ccc(O)c(O)c3)[C@@H](O)C5)[C@H]3COC(=O)[C@H]23)OCO4)cc(OC)c1O .
Given back: no

Asked: I would be grateful if you could indicate the recorded call for Cc1[nH]c2ncn(/N=C/c3ccccc3O)c(=N)c2c1Cc1ccccc1 .
Given back: no

* * *

# System: CAKI-1
# experiment_description: NCI tumour cell line growth inhibition, 48 h
The source made the active and inactive calls. No stated cut-off is given here; in the data, active = GI50 up to about 1.1 µM and inactive = higher.
measured_endpoint: GI50

Asked: Would you mind telling me what GI50 value was observed for CCN(CC)CCCNc1nccc2c(C)c3c(cc12)c1cnccc1n3C ?
Given back: 0.144 µM (active)

Asked: Would you mind telling me what GI50 value was observed for COC(=O)c1c(O)ccc2c1c1c(n2Cc2ccccc2OC)C(=O)c2ccccc2C1 ?
Given back: 65.3 µM (inactive)

Asked: Would you mind telling me what GI50 value was observed for CC(C)(C)c1ccc(OC(=O)Nc2ccc(O)c(C(=O)O)c2)cc1 ?
Given back: > 100 µM (inactive)

Asked: Would you mind telling me what GI50 value was observed for CCCCC(C)C(OC(=O)CC(CC(=O)O)C(=O)O)C(CC(C)CC(O)CCCCC(O)CC(O)C(C)N)OC(=O)CC(CC(=O)O)C(=O)O (stereo unspecified) ?
Given back: > 100 µM (inactive)

Asked: Would you mind telling me what GI50 value was observed for Cc1n[nH]c(=O)n1/N=C/c1ccc(F)cc1 ?
Given back: > 100 µM (inactive)

Asked: Would you mind telling me what GI50 value was observed for Nc1nc(N)c(N=O)c(Nc2ccc(Br)cc2)n1 ?
Given back: 29.4 µM (inactive)

Asked: Would you mind telling me what GI50 value was observed for COC(=O)c1c(C)[nH]c2c1C(=O)C(=O)c1nc(C)c(C)nc1-2 ?
Given back: 6.75 µM (inactive)

Asked: Would you mind telling me what GI50 value was observed for CCOC(=O)c1sc(N)nc1N1CCCC1 ?
Given back: > 100 µM (inactive)

Asked: Would you mind telling me what GI50 value was observed for Cc1ccc(NC(=S)NNC(=O)c2cc(-c3ccccc3)nc3ccccc23)cc1C ?
Given back: 59.7 µM (inactive)

Asked: Would you mind telling me what GI50 value was observed for CCCCCN(CCCCC)C(=O)[C@@H](CCC(=O)O)NC(=O)c1cc2ccccc2[nH]1 ?
Given back: 25.1 µM (inactive)

Asked: Would you mind telling me what GI50 value was observed for Cn1ncc2cc3c(Nc4ccc(Cl)cc4)cccc3nc21 ?
Given back: 15.5 µM (inactive)

Asked: Would you mind telling me what GI50 value was observed for Cn1ncc2c(NCc3ccccc3)ncnc21 ?
Given back: > 100 µM (inactive)

Asked: Would you mind telling me what GI50 value was observed for CN(C)CCCNc1nnc(NCCCN(C)C)c2c(=O)c3sccc3[nH]c12 ?
Given back: 5.05 µM (inactive)

Asked: Would you mind telling me what GI50 value was observed for CC1=NN(C(=O)CC(=O)N(C(=O)c2ccccc2)c2ccc(Cl)cc2)C(=O)C1/N=N/c1ccc([N+](=O)[O-])cc1 (stereo unspecified) ?
Given back: > 10 µM (inactive)

Asked: Would you mind telling me what GI50 value was observed for CC1(C)N=C(Oc2ccccc2)n2nccc2N1 ?
Given back: > 100 µM (inactive)

Asked: Would you mind telling me what GI50 value was observed for COc1ccc(/C=C2\N=C3NC(=O)C(N4CCCCC4)=C(N)N3C2=O)cc1 ?
Given back: > 100 µM (inactive)

Asked: Would you mind telling me what GI50 value was observed for CC(C)(C)OC(=O)N1C2CCCC23O[C@@H]1c1cc2c(cc1C3=O)OCO2 (stereo partly specified) ?
Given back: 9.57 µM (inactive)

Asked: Would you mind telling me what GI50 value was observed for COc1ccc(C2S/C(=C\c3cc(OC)c(OC)c(OC)c3)C(=O)N2NC(=O)Cc2ccccc2)cc1 (stereo unspecified) ?
Given back: > 100 µM (inactive)

Asked: Would you mind telling me what GI50 value was observed for COc1ccc(-c2c(N)n(-c3nc4ccccc4s3)c(=O)c3cc([N+](=O)[O-])ccc23)cc1 ?
Given back: 21.3 µM (inactive)

Asked: Would you mind telling me what GI50 value was observed for CCOC(=O)CCc1ccc(NC(=O)/C=C/c2ccc([N+](=O)[O-])o2)cc1 ?
Given back: 2.47 µM (inactive)

Asked: Would you mind telling me what GI50 value was observed for O=C1CCCCC/C1=C\c1cccc(F)c1 ?
Given back: 65.9 µM (inactive)
